Test: yeast display, Sf9 membrane polyspecificity reagent, FACS + sequencing; frameworks hold sequencing errors
measurementLabel: polyreactivity (PSR sort gate)

INSERT INTO measurements (residuecodes, reading) VALUES
  ('QVQLVESGGGLVQAGGSLRLSCAASGITFFYYAMGWYTQAPGKERELVAAISTSGGRTYYADSVKGRFTISRDNAKNTVYLQMHSLKPEDTAVYYCAARSRVQPAGPRYDYWGQGTQVTVSS', 'high polyreactivity'),
  ('QVQLVESGGGLVQAGGSLRLRCAASGSTLYGNAMGWYRQAPGKERDLVAVISRGGTTSYADSVKGRFTISRDNAKNTVYLQMKSLKPEDTAVYYCAVDVASLSTWPPAGRLVDYWGQGTQVTVSS', 'low polyreactivity'),
  ('QVQLVESGGGLVQAGGSLRLSCDASGFTFTRNAMGWYRQAPGKERELVDAISKRGGTTYYADSVKGRFTISRDYAKNTVYLQMNTLKPEDTSVYYCAKDGGITGGYWGQGTQVTVSS', 'high polyreactivity'),
  ('QVQLVESGGGLVQAGGSLRLSCAASGLIFDWYAMGWYRPAPGKERELVADISNSGGSTNYADSVKGRFTISRDSAFNTVYLQMNSLKPEDTEVYYCAVDYYYPTLTIGYYYWGQVTQVTVSS', 'low polyreactivity'),
  ('QVQLVESGGGLVQAGGSLRLSSAASGSTFFSYAMGWYRQAPGKERELVAAISWIDDGTYYADSVKGRFTISRDNAKNTVYLQMNSLKPEDTAVYYCAADIGAYRTWDYEYWGQGTQVTVSS', 'low polyreactivity');

[ask] Report polyreactivity (PSR sort gate) for QVQLVESGGGLVQAGGSLRLSCAASGFIFRLNTMGWYRQAPGKERELVATISSGGSTNYADSVKGRFTISRDNAKITVYLQMNSLKPEDTAVYYCAKKKTRYGGSYNYWGQGTQVTVSS please.
[reply] high polyreactivity

[ask] Report polyreactivity (PSR sort gate) for QVQLVESGGGLVQAGGSLRLSCAASGSIFHDYAMGWYRQAAGKERELVAVISTSGGSTYYADSVKGRFTISRDNAKNTVYLQMNSLKPEDTAVYYCAADPFDGYSSSEYDYWGQGTQVTVSS please.
[reply] low polyreactivity

[ask] Report polyreactivity (PSR sort gate) for QVQIVESGGGLVQAGGSLRLSCAASGSNNGYYTMGWYRQAPRKERELVAAINYSGGRTYYADSVKGRFTISRDNAKNTVYFQMNSLKPEDTAVYYCARAYYYGSDIMDYWGQGTQVTVSS please.
[reply] high polyreactivity

[ask] Report polyreactivity (PSR sort gate) for QVQLVESGGGLVQAGGSLRLSCAASGFTFGSNAMGWYRQAPGKERELVAAIRSRGGSTYYADSVKGRFTISRDNAKNTVYLQMNSLKPEDTAVYYCAADFIGRDYDYWGQGTQVTVSS please.
[reply] high polyreactivity

[ask] Report polyreactivity (PSR sort gate) for QVQLVESGGGLVQAGGSLRLSCAASGITFYFYAMGWYRQAPGKERELVAAITSTGTSTYYADSVKGRFTISRDNAKNTVYLQMNSLKPEDSAVYYCAKDQHYPHYQPYWSRYDYWGQGTQVTVSS please.
[reply] low polyreactivity

[ask] Report polyreactivity (PSR sort gate) for QVQLVESGGGLVQAGGSLRLSCADSGRTFVTTAMGWYRQAPGKERELVAAIDGGGDRTYYADTVKVRFTISRDYAKYTVYLQMNSLKPEDSAVYYCNKDRGTLYGDMDSWGQGTQVTVSS please.
[reply] low polyreactivity

* * *

Test: yeast display, Sf9 membrane polyspecificity reagent, FACS + sequencing; frameworks hold sequencing errors
measurementLabel: polyreactivity (PSR sort gate)

Reference set (5 entries):
INSERT INTO results (residuecodes, reading) VALUES
  ('QVQLVESGGGLLQAGGSLRLSCAASGITFVKYTMGWYRQAPGKERELVAAISRSDGRTYYADSVKGRFTISRDNAKNTVYLQMNSLQPEDTEVYYCNAVYGVIGKGYNYWGQGTQVTVSS', 'high polyreactivity'),
  ('QVQLVESGGGLVQAGGSLRLSCAASGSIFPQYAMGWYRQAPGKERELVAAISSSGGRTYYADSVKGRFTISRDNAKNTVYLQMNSLKPEDTAVYYCAADGSYAIGGYGYWGQGTQVTVSS', 'high polyreactivity'),
  ('QVHLVDSGGGLVQAGGSLSLSCAPSGTTFHPYAMGCYRHAPGKEREFVATISGSAGSTYYADSVKGRFKISRDNAKNTVYLQMNSLKPEDTAVYYCNADSGWFGYDYWGQGTQVTVSS', 'low polyreactivity'),
  ('QVQLVESGGGLVQAGGSLRLSCAASGGTFYNYAMGWYRQAPGKERELVAAISTSGTSTYYADSVKGRFTISRDNAKNTVYLQMNSLKPEDTAVYYCAARGLRVSSRGYYWGQGTQVTVSS', 'high polyreactivity'),
  ('QFQLVESGGGLVQAGGSLRLSCAASARTFVSNAMGWDRQAPGKERELVADITSGGSTDYADSVKGRFTSSRDNAKNTVYVQMNSVKPEDTAVSYCATDLWRWYGWFDYWGQGTQVTVSS', 'low polyreactivity');

[ask] Report polyreactivity (PSR sort gate) for QVQLVESGGGLVQAGGSLRLSCAASGRTFRYYAMGWYRQAPGKERELVAAITSGGSTYYADSVKGRFTISRDNAKNTVYLQMNSLKPEDTAVYYCNKDFTRTWTRHGDDYWGQGTQVTVSS please.
[reply] high polyreactivity

[ask] Report polyreactivity (PSR sort gate) for QVQLVESGGGLVQAGGSLRLSCAAYGLIFTHNTMGWYRQAPGKERELVAAITTSGGTTYYADSVKGRFTISRDNAKNTVYLQMNSLKPEDTAVYYCNALYLSTRSGDYWGQGTQVTVSS please.
[reply] high polyreactivity

[ask] Report polyreactivity (PSR sort gate) for QVQLVESGGGLVQAGGSLRLSCAASGRILIGNALGWYRQAPGKERELVAAISKRGGSTYYADSVKGRFTMSRDNAKNTDYLHMNSLKPEDTAVYYCNIESLYREFDYWGQGTLVTVSS please.
[reply] low polyreactivity

[ask] Report polyreactivity (PSR sort gate) for QVQLVESGGGLVQAGGSLRLSCAASGSTFTWYAMGWYRQAPGKERELVADISYGGRSTYYADSVKGRFTISRDNAKNTVYLQMNSLKPEDTAVYYCAAESIPYYRYDYWGQGTQVTVSS please.
[reply] low polyreactivity

[ask] Report polyreactivity (PSR sort gate) for QVQLVESGGGLVQAGGSLRLSCAASGIIYNPNAMGWYRQAPGKERELVAVISISDSTNYADSVKGRFTISRDNAKNTVYLQMNSLKPEDTAVYDCATASAGTLSVTYYHWYDDWGQGTQVTVSS please.
[reply] low polyreactivity

[ask] Report polyreactivity (PSR sort gate) for QVQLVESGGGLVQAGGSLRLSCAASGGTFVGYTMGWYRQAPGKERELVAGIRTRSGSTSYADSVKGRFTISRDNAKNTVYLQMNSLKPEDTAVYYCAARPYGRYPYPEYYYWGQGTQVTVSS please.
[reply] high polyreactivity

* * *

Assay: yeast display, Sf9 membrane polyspecificity reagent, FACS + sequencing; frameworks hold sequencing errors
measurementLabel: polyreactivity (PSR sort gate)

Reference set (4 entries):
INSERT INTO assay_data (residuecodes, measurementlabel, reading) VALUES
  ('QVQLVESGGGLVQAGGSLRLSCAATGRTFINYAMGWYRQAPGKERALVAAITTGGRTNYADSVKGRFTISRDNAKNTVYLQMNSLKPEDTAVFYCAADRYYWGRYTLNYWGQGTQVTVSS', 'polyreactivity (PSR sort gate)', 'low polyreactivity'),
  ('QVQLVESGGGLVQAGGSLRLTCAASGLSSLRMLWDGIDRRLGKKGSWLPLLTSGGDSTNYADSVKGRFTISRDTAKNTVYLQIISLKPEDTAVYYCAADLDYPYGYWGQGTQVTVSS', 'polyreactivity (PSR sort gate)', 'low polyreactivity'),
  ('QVQLVESGGGLVQAGGSLRLSCAASGRIFTWYAMGWYRQAPGKERELVAAISWSGGRTYYADSVKGRFTISRDYSKNTVYLQMNSLKPEVTAVYYCAAREPGRTLDYLGQGTQVTVSS', 'polyreactivity (PSR sort gate)', 'high polyreactivity'),
  ('QVQLVESGGGLVQAGGSLRLSCAASGSTFYTNPMGWYRQAPGKERELVAAISGSGGSTYYADSVKGRFTISRDNAKNTVYLQMNSLKPEYTAVYYCAARSRYYDTRFDYWGQGTQVTVSS', 'polyreactivity (PSR sort gate)', 'low polyreactivity');

[ask] Report polyreactivity (PSR sort gate) for QVQLVESVGGLVQAGGSLRLSCAASGRTFYGYAMGWYRKAPGKERELVAAISTGGGRTYYADSVKGRFTISRDNAKNTVYLQMNSLKPEDTAVYYCAARRAYPHYRVDYWGQGTQVTVSS please.
[reply] high polyreactivity

[ask] Report polyreactivity (PSR sort gate) for QVQLVESGGGLVQAGGSLRLSCAASGRIFNGNAMGWYRQAPGKEREFVAAITWNGGRTYYADSVKGRFTISRDYAKNTVYLQMNSLKPEDTAVYYCNADPYHRRSSGDYWGQGTQVTVSS please.
[reply] high polyreactivity

[ask] Report polyreactivity (PSR sort gate) for QVQLVESGGGLVQAGGSLRLSCAASGSTFDLNAMGWYRQAPGKERELVARISSVGSTNYADSVKGRFTISRDNAKNTVYLQMNSLKPEDTAVYYCNAGFWDLYDYWGQGTQVTVSS please.
[reply] low polyreactivity
